tested on: RAW-Dual; assay: NF-kB SEAP reporter activity, fold change vs agonist alone; cytotoxicity flag (confluency mask): not cytotoxic; higher = enhanced NF-kB activity; conditions: agonist: LPS (TLR4) 0.1 ug/mL
Whole data set: some 2,900 compounds, median “NF-kB SEAP reporter activity, fold change vs agonist alone” near 0.99, cut for the highest 2% near 2.6. Shown is part of a subset that was picked to be rich in the highest values.
measurement-name: NF-kB SEAP reporter activity

| compound | obs-value |
| --- | --- |
| O=C(NCC(O)CN1CCc2ccccc2C1)c1ccnc(NC2CCC2)c1 (stereo unspecified) (library stock concentration (final ~1000-fold dilution): 10 mM) | 0.908 |
| C=CC(=O)N1CCC(C2CCNc3c(C(N)=O)c(-c4ccc(Oc5ccccc5)cc4)nn32)CC1 (stereo unspecified) (library stock concentration (final ~1000-fold dilution): 10 mM) | 0.708 |
| CN(C)CCOC(c1ccccc1)c1ccccc1.Cl (library stock concentration (final ~1000-fold dilution): 10 mM) | 1.27 |
| COc1ccc(-c2ccc3c(N4CCOCC4)nc(N4CC(C)OC(C)C4)nc3n2)cc1CO (stereo unspecified) (library stock concentration (final ~1000-fold dilution): 10 mM) | 0.793 |
| COc1cc(-c2cc(-c3ccc(N4CCNCC4)cc3)cnc2C)cc(OC)c1OC (library stock concentration (final ~1000-fold dilution): 10 mM) | 3.37 |
| CC#Cc1cncc(-c2ccc3c(c2)C2(N=C(C)C(N)=N2)C2(CCC(OC)CC2)C3)c1 (stereo unspecified) (library stock concentration (final ~1000-fold dilution): 10 mM) | 1.15 |
| Oc1cc(CNC(=S)/C=C/c2cc(O)c(O)c(Br)c2)cc(O)c1O (library stock concentration (final ~1000-fold dilution): 10 mM) | 3.51 |
| CC1(C)SC2C(NC(=O)C(N)c3ccccc3)C(=O)N2C1C(=O)OCOC(=O)C1N2C(=O)CC2S(=O)(=O)C1(C)C (stereo unspecified) (library stock concentration (final ~1000-fold dilution): 10 mM) | 1.06 |
| CN1C2=C3N=c4ccccc4=C3CCN2C(=O)c2ccccc21.Cl (library stock concentration (final ~1000-fold dilution): 10 mM) | 1.21 |
| CC(C)Cc1ccc(C(C)C(=O)O)cc1.NCCCCC(N)C(=O)O (stereo unspecified) (library stock concentration (final ~1000-fold dilution): 10 mM water) | 1.42 |
| C=CC(=O)Nc1cccc(Nc2nc(Nc3ccc(NC4CN(CCF)C4)cc3OC)ncc2C(F)(F)F)c1 (library stock concentration (final ~1000-fold dilution): 10 mM) | 0.561 |
| CCN1CCN(Cc2ccc(-c3cc4c(NC(C)c5ccccc5)ncnc4[nH]3)cc2)CC1 (stereo unspecified) (library stock concentration (final ~1000-fold dilution): 10 mM) | 0.832 |
| N#C/C(C(=O)c1ccc(Cl)cc1Cl)=C1\NC(=O)c2ccccc2N1 (library stock concentration (final ~1000-fold dilution): 10 mM) | 1.13 |
| NS(=O)(=O)c1ccc(NC(=S)N2CCN(C/C=C/c3ccccc3)CC2)cc1 (library stock concentration (final ~1000-fold dilution): 10 mM) | 1.42 |
| CC(C)(CNC(=O)c1cccc(-c2noc(C(F)(F)F)n2)c1)c1coc(-c2ccccc2)n1 (library stock concentration (final ~1000-fold dilution): 10 mM) | 1.03 |
| Cc1[nH]nc(C(F)(F)F)c1Cc1sc2c(c1C(=O)N1CC(C)(O)CO1)c(=O)n(C)c(=O)n2C(C)C (stereo unspecified) (library stock concentration (final ~1000-fold dilution): 10 mM) | 1.81 |
| NCC(O)(c1ccc(Cl)cc1)c1ccc(-c2cn[nH]c2)cc1 (stereo unspecified) (library stock concentration (final ~1000-fold dilution): 10 mM) | 0.342 |
| CC1(C(=O)O)CCC2(C)CCC3(C)C(=CC(=O)C4C5(C)CCC(OC6OC(C(=O)O)C(O)C(O)C6OC6OC(C(=O)O)C(O)C(O)C6O)C(C)(C)C5CCC43C)C2C1.N.N (stereo unspecified) (library stock concentration (final ~1000-fold dilution): 10 mM) | 0.96 |
| COc1cc2nccc(Oc3ccc(NC(=O)C4(C(=O)Nc5ccc(F)cc5)CC4)cc3)c2cc1OC (library stock concentration (final ~1000-fold dilution): 10 mM) | 0.511 |
| COc1ccc(CCC(=O)N(c2nccc3ccccc23)C2CCCNC2)cc1 (stereo unspecified) (library stock concentration (final ~1000-fold dilution): 10 mM) | 1.05 |
| O=C1NC(=O)C(c2cnc3ccccn23)=C1c1cn2c3c(cc(F)cc13)CN(C(=O)N1CCCCC1)CC2 (library stock concentration (final ~1000-fold dilution): 10 mM) | 3.19 |

Origin of measurements: the supplement of paper PMC10037445
